Assay remarks: enhancers of RGS4 function in calcium signaling – cell-based, HEK293 M3R inducible RGS4, calcium flux, primary screen (AID 463111)
Experimental parameters: HEK293 M3R/inducible RGS4, carbachol calcium flux Fluo4, at 10 µM
In all, about 310,000 compounds went through this assay and about 2,800 (0.9%) were called active.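 The calls were made as follows: active = B-score of the integrated calcium signal more than 4 SD below the library mean, with starting fluorescence not abnormally high; inactive = the rest.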 The sample holds actives, similar compounds and a random draw of the others, so the mix is not that of the screen.
Result category, one only: Y = active, N = inactive

// query Hey, what did the test say about COc1ccc(C(CC(=O)c2ccccc2)S(=O)(=O)c2ccccc2)cc1 (stereo unspecified) ?
// result N

// query Hey, what did the test say about CCOC(=O)c1c(NC(=O)NC(C)(C)C)sc2c1CCN(C)C2 ?
// result Y

// query Hey, what did the test say about CCOC(=O)c1c(NC(=O)Cn2nc(C(F)(F)F)cc2C)sc2c1CCC2 ?
// result N

// query Hey, what did the test say about CCC(=O)c1ccc(N2CCN(C(=O)c3cc([N+](=O)[O-])ccc3F)CC2)c(F)c1 ?
// result N

// query Hey, what did the test say about COc1cc(SC#N)ccc1N=Cc1c(C)[nH]n(-c2ccc(C)cc2)c1=O ?
// result N

// query Hey, what did the test say about COC(=O)c1ccccc1Sc1c(/C=N/OCc2ccc(Cl)cc2)c(C(F)(F)F)nn1C ?
// result Y

// query Hey, what did the test say about CN(C)S(=O)(=O)c1cccc(-c2nn(-c3ccccc3)cc2/C=C2\SC(=S)N(CC(=O)O)C2=O)c1 ?
// result N

// query Hey, what did the test say about CCOc1ccccc1NC(=O)C1CCCN(S(=O)(=O)c2ccccc2)C1 (stereo unspecified) ?
// result N

// query Hey, what did the test say about CC1Cc2ccccc2N1CC(=O)Nc1ccc2c(c1)OC(F)(F)O2 (stereo unspecified) ?
// result N

// query Hey, what did the test say about COc1cccc(C2c3[nH]c4ccccc4c3CCN2Cc2cccc(C)n2)c1 (stereo unspecified) ?
// result N

// query Hey, what did the test say about CCOc1ccc(N(C)Cc2cc(=O)oc3ccc(OC)cc23)cc1 ?
// result N

// query Hey, what did the test say about CCN1CCN(c2ccc([N+](=O)[O-])cc2C(=O)c2ccc(Cl)cc2)CC1 ?
// result Y

// query Hey, what did the test say about CCOC(=O)c1c(NC(=S)Nc2ccccc2)sc2c1CCN(C)C2 ?
// result N

// query Hey, what did the test say about CC(C)c1ccccc1OCC(O)CN(CC(O)COc1cccc2ccccc12)C(C)C (stereo unspecified) ?
// result Y

// query Hey, what did the test say about CCC(C)Sc1nc2c(c(=O)[nH]c(=O)n2C)n1CC(O)COc1cccc2ccccc12 (stereo unspecified) ?
// result N

// query Hey, what did the test say about O=C(COC(=O)Cc1ccc(Br)cc1)Nc1c(F)c(F)c(F)c(F)c1F ?
// result N

// query Hey, what did the test say about CCCN(CCc1ccccc1)C1CCc2c(O)cccc2C1 (stereo unspecified) ?
// result Y

// query Hey, what did the test say about CCC1CCc2c(sc(NC(C)=O)c2C#N)C1 (stereo unspecified) ?
// result N

// query Hey, what did the test say about Cc1ccc(C)c(NC2=NCC(=O)N2c2ccc3c(c2)OCCO3)c1 ?
// result N

// query Hey, what did the test say about C=CCN(N=Nc1cccc([N+](=O)[O-])c1)c1cccc([N+](=O)[O-])c1 ?
// result N

// query Hey, what did the test say about C=CCN(C(=O)Cn1ncc2c1-c1cc(C)ccc1OC2)c1ccccc1 ?
// result N

---

Assay remarks: enhancers of RGS4 function in calcium signaling – cell-based, HEK293 M3R inducible RGS4, calcium flux, primary screen (AID 463111)
Experimental parameters: HEK293 M3R/inducible RGS4, carbachol calcium flux Fluo4, at 10 µM
About 2,800 (0.9%) of roughly 310,000 compounds were called active.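 The calls were made as follows: active = B-score of the integrated calcium signal more than 4 SD below the library mean, with starting fluorescence not abnormally high; inactive = the rest.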 What follows is part of a selection rich in actives, with near analogues and random picks from the rest.
Result category, one only: class 1 = active, class 0 = inactive

// query Hey, what did the test say about O=C(NCCCN1CCOCC1)c1cc2c(s1)CCC2 ?
// result class 0

// query Hey, what did the test say about COc1cc(/C=C2/SC(=S)N(Cc3ccccc3)C2=O)cc(OC)c1O ?
// result class 0

// query Hey, what did the test say about CCC1CCCCN1CCCNC(=O)Cn1nc(-c2ccccc2)ccc1=O (configuration not stated) ?
// result class 0

// query Hey, what did the test say about O=C1c2ccccc2C(=O)c2c1cccc2N1CCN(C/C=C/c2ccccc2)CC1 ?
// result class 0

// query Hey, what did the test say about COc1ccc(-c2csc3ncnc(Oc4ccc5c(C)cc(=O)oc5c4)c23)cc1 ?
// result class 0

// query Hey, what did the test say about CC(C)Cn1c(N2CCN(C(=O)/C=C/c3ccccc3)CC2)nc2ccccc21 ?
// result class 0

// query Hey, what did the test say about CCCCN1C(=O)/C(=C/C=C2/C=Cc3ccccc3N2CC)SC1=S ?
// result class 0

// query Hey, what did the test say about Cc1nc(N2CCN(c3ccccn3)CC2)c2c(C)c(C(=O)Nc3ccc(F)c(Cl)c3)sc2n1 ?
// result class 0

// query Hey, what did the test say about Cc1cc(NC(=O)CCN2CCN(Cc3ccccc3)CC2)ccc1Br ?
// result class 0

// query Hey, what did the test say about Cc1nc(N2CCN(c3ccccn3)CC2)c2c(C)c(C(=O)Nc3ccc(F)cc3)sc2n1 ?
// result class 1

// query Hey, what did the test say about O=C(CN1CCCCCC1)Nc1ccc(Br)cc1[N+](=O)[O-] ?
// result class 0

// query Hey, what did the test say about O=C(N/N=C/c1ccsc1)c1cc(O)cc(O)c1 ?
// result class 0

// query Hey, what did the test say about CCN1C(=O)/C(=C2/Sc3ccccc3N2CCCS(=O)(=O)O)SC1=S ?
// result class 0

// query Hey, what did the test say about CN1C(=O)c2cccc3c(N)ccc(c23)C1=O ?
// result class 0

// query Hey, what did the test say about CN(C)C(=O)c1nc2ccc(Cl)cn2c1CNCc1cccc(OC(F)(F)F)c1 ?
// result class 0

// query Hey, what did the test say about O=C1c2ccccc2C(=O)N1c1cccc2ccccc12 ?
// result class 0

// query Hey, what did the test say about CCC1CCCCN1CCCNC(=O)c1cc2c(Cl)nc3ccccc3c2s1 (configuration not stated) ?
// result class 1

// query Hey, what did the test say about CCC1CCCCN1CCCNC(=O)C1CCC(Cn2c(=O)[nH]c3ccccc3c2=O)CC1 (configuration not stated) ?
// result class 0

// query Hey, what did the test say about COc1ccc(C(=O)Nc2nc(-c3ccc(S(=O)(=O)N4CCOCC4)cc3)cs2)cc1 ?
// result class 1

// query Hey, what did the test say about COc1ccc(CN2CC[C@H]3C=CC[C@@H](C(=O)N4CCOCC4)[C@H]3C2=O)cc1OC ?
// result class 0

// query Hey, what did the test say about O=C(CN1C(=O)COc2ccccc21)NCCN1CCc2ccccc2C1 ?
// result class 0

// query Hey, what did the test say about O=C(COc1ccc(Cl)cc1[N+](=O)[O-])N1CCCCC1 ?
// result class 0

---

Assay remarks: enhancers of RGS4 function in calcium signaling – cell-based, HEK293 M3R inducible RGS4, calcium flux, primary screen (AID 463111)
Experimental parameters: HEK293 M3R/inducible RGS4, carbachol calcium flux Fluo4, at 10 µM
Out of some 310,000 compounds screened, about 2,800 (0.9%) were called active.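 Rule for the calls: active = B-score of the integrated calcium signal more than 4 SD below the library mean, with starting fluorescence not abnormally high; inactive = the rest.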 This is one part of a sample in which actives are shown more often than they occur.
Result category, one only: 1 for active, 0 for inactive

// query Hey, what did the test say about O=C(NCCc1ccccn1)c1cc(C(=O)C2CCCCC2)c[nH]1 ?
// result 0

// query Hey, what did the test say about COc1cccc(-c2cc3nc4c(c(N5CCC6(CC5)OCCO6)n3n2)CCCC4)c1 ?
// result 1

// query Hey, what did the test say about Cc1ccc(-c2nc(-c3cccnc3)sc2CC(=O)Nc2ccc(C)c(Cl)c2)cc1 ?
// result 0

// query Hey, what did the test say about O=C(Oc1ccc(-c2nnco2)cc1)c1ccc(F)c(S(=O)(=O)N2CCOCC2)c1 ?
// result 1

// query Hey, what did the test say about COc1ccc(-c2nn(-c3ccccc3)cc2/C=C2/SC(=S)N(CCCC(=O)O)C2=O)c(C)c1 ?
// result 0

// query Hey, what did the test say about O=C(NC1(C(F)(F)F)NC(=O)N(Cc2cccnc2)C1=O)c1ccccc1Cl (configuration not stated) ?
// result 0

// query Hey, what did the test say about CN(/C(=N/S(=O)(=O)c1cccs1)c1ccccc1)c1ccc(O)cc1 ?
// result 0

// query Hey, what did the test say about Cc1cccc(C)c1NC(=O)C1(C)c2cccc[n+]2CC(=O)N1Cc1cccs1 (configuration not stated) ?
// result 0

// query Hey, what did the test say about COc1ccc(-c2cc(C(=O)N(C)Cc3ccccc3)c3ccccc3n2)cc1 ?
// result 1

// query Hey, what did the test say about CC(C)NC(=O)C(=O)NCCCOC(C)C ?
// result 0

// query Hey, what did the test say about O=C(Nc1cccn(Cc2c(Cl)cccc2Cl)c1=O)c1ccc(Cl)cc1 ?
// result 0

// query Hey, what did the test say about COc1ccccc1CNC(=O)C1CCN(C(=O)[C@@H]2Cc3ccccc3CN2)CC1 ?
// result 0

// query Hey, what did the test say about CCCCOc1ccc(N(CC(=O)NCC2CCCO2)C(=O)CCC(=O)Nc2cc(C)ccn2)cc1 (configuration not stated) ?
// result 0

// query Hey, what did the test say about CC(C)[C@H](NC(=O)c1ccc(F)cc1)C(=O)OCC(=O)NC(=O)c1cccn1C ?
// result 0

// query Hey, what did the test say about CN(Cc1ccccc1)c1nc2c(c(=O)[nH]c(=O)n2C)n1CCSc1nc2ccccc2[nH]1 ?
// result 0

// query Hey, what did the test say about OC(CN=c1sc2ccccc2n1CC(O)COc1ccccc1)COc1ccccc1 (configuration not stated) ?
// result 1

// query Hey, what did the test say about O=C1NCC(=O)N(Cc2ccccc2)/C1=C/c1ccccc1 ?
// result 0

// query Hey, what did the test say about Cc1ccc(C)c(-c2nnc(NC(=O)CS(=O)(=O)c3ccccc3)o2)c1 ?
// result 0

// query Hey, what did the test say about CCc1c(C)sc(NC(=O)c2ccc(Br)o2)c1C(=O)OC ?
// result 1

// query Hey, what did the test say about CC(C)c1ccc(OCC(O)Cn2cnc3ccccc32)cc1 (configuration not stated) ?
// result 0

// query Hey, what did the test say about CCOc1ccc2[nH]c(=O)c(CN(Cc3nnnn3CCc3ccccc3)CC3CCCO3)cc2c1 (configuration not stated) ?
// result 0

// query Hey, what did the test say about O=C(COC(=O)c1cnccn1)Nc1ccc(Cl)cc1C(F)(F)F ?
// result 0

// query Hey, what did the test say about COc1cccc(CNc2nc3nc4c(c(=O)n3[nH]2)CCC4)c1 ?
// result 0

// query Hey, what did the test say about CCn1c(SC)nc(O)c(C(c2ccc(OC)c(O)c2)c2c(O)nc(SC)n(CC)c2=O)c1=O ?
// result 0

// query Hey, what did the test say about CCOc1ccc(S(=O)(=O)Nc2ccc(C(=O)NCCCN3CCCC3=O)cc2)cc1 ?
// result 0

// query Hey, what did the test say about O=C(CCN1C(=O)C2C3CCC(C3)C2C1=O)Nc1ccc(Cl)cc1Cl (configuration not stated) ?
// result 0

// query Hey, what did the test say about COc1ccc(C(=O)Oc2ccc(-c3nnco3)cc2)cc1S(=O)(=O)N1CCOCC1 ?
// result 0

// query Hey, what did the test say about O=C(NCC1CCCO1)c1cc(-c2ccccc2)nc2ccccc12 (configuration not stated) ?
// result 0

// query Hey, what did the test say about C[C@@H](C(=O)N1CCNCC1)n1cc(CCC(=O)O)nn1 ?
// result 0

// query Hey, what did the test say about CNC(=O)COC(=O)c1cc(-c2ccc(OC)cc2)nc2ccccc12 ?
// result 0

// query Hey, what did the test say about O=C(NCC1CCCO1)c1cc2c([nH]c3ccccc32)c(-c2ccc(F)cc2)n1 (configuration not stated) ?
// result 1

// query Hey, what did the test say about O=C(NCCCO)c1cc2c([nH]c3ccccc32)c(-c2ccc(F)cc2)n1 ?
// result 0

// query Hey, what did the test say about Cc1cc(NC(=O)COC(=O)c2ccc(F)c(S(=O)(=O)N3CCOCC3)c2)no1 ?
// result 0

// query Hey, what did the test say about Cn1c(=O)c2c(SCC(=O)NCC3CCCO3)nc(CC(C)(C)C)nc2n(C)c1=O (configuration not stated) ?
// result 0

// query Hey, what did the test say about COc1ccc(CN(C)C(=O)Cc2c[nH]c3ccccc23)c(OC)c1OC ?
// result 0

// query Hey, what did the test say about COc1cc(C2OC(c3cc(OC)c(OC)c(OC)c3)C(C)C2C)cc(OC)c1OC (configuration not stated) ?
// result 0

// query Hey, what did the test say about CCC1C=C(c2ccccc2)C=CN=C1N(CC)CC (configuration not stated) ?
// result 1

// query Hey, what did the test say about COc1ccc(-c2cc(C(=O)N(C)CC(=O)Nc3ccccc3Cl)c3ccccc3n2)cc1OC ?
// result 0

// query Hey, what did the test say about O=C(NCc1ccncc1)C(=O)NCC1OCCN1S(=O)(=O)c1ccc(Br)cc1 (configuration not stated) ?
// result 0

// query Hey, what did the test say about Cc1onc(-c2c(F)cccc2Cl)c1C(=O)N(C)CC(=O)Nc1cccc(F)c1 ?
// result 0

// query Hey, what did the test say about CCOC(=O)c1c(NC(=O)C2CC=CCC2C(=O)O)sc(C)c1CC (configuration not stated) ?
// result 0

// query Hey, what did the test say about C=CCn1c(=N)n(CC(O)COc2ccc(OC)cc2)c2ccccc21 (configuration not stated) ?
// result 0
